// reported pEC50 per item
TARGET UNDER TEST: DOR (Homo sapiens, UniProt P41143)
Construct: membrane homogenate
EXPERIMENT NOTES: [35S]-GTPγS functional assay, DOR
CONDITION DESCRIPTION: hDOR-CHO membranes
Friendly reminder that pEC50 comes from taking -log10 of the concentration in mol/L.

# value lookup — system DOR (Homo sapiens, UniProt P41143), readout pEC50, item CN(C(=O)CCc1ccco1)[C@@H]1CC[C@@]2(O)[C@H]3Cc4ccc(O)c5c4[C@@]2(CCN3CC2CC2)[C@H]1O5 7.77

Observed pEC50 on DOR (Homo sapiens, UniProt P41143) for O=C(CCc1ccoc1)N[C@H]1CC[C@@]2(O)[C@H]3Cc4cccc5c4[C@@]2(CCN3CC2CC2)[C@H]1O5 , please. 6.37

Param readout= pEC50; system= DOR (Homo sapiens, UniProt P41143); entry= CN(C(=O)/C=C/c1ccco1)[C@@H]1CC[C@@]2(O)[C@H]3Cc4cccc5c4[C@@]2(CCN3CC2CC2)[C@H]1O5 ; returns value. 5.22

Give pEC50 (DOR (Homo sapiens, UniProt P41143)) of the following compound: CN(C(=O)CCc1ccoc1)[C@@H]1CC[C@@]2(O)[C@H]3Cc4ccc(O)c5c4[C@@]2(CCN3CC2CC2)[C@H]1O5 7.72

* * *

EXPERIMENT NOTES: in vitro
CONDITION DESCRIPTION: human, s9
MEASURED QUANTITY: half-life

INSERT INTO results (compound, reading) VALUES
  ('CN(C(=O)/C=C/c1ccco1)[C@H]1CC[C@@]2(O)[C@H]3Cc4ccc(O)c5c4[C@@]2(CCN3CC2CC2)[C@H]1O5.Cl [Compound 21]', '> 2 h');

Below: the item to evaluate.
Recorded half-life of CN(C(=O)/C=C/c1ccco1)[C@@H]1CC[C@@]2(O)[C@H]3Cc4ccc(O)c5c4[C@@]2(CCN3CC2CC2)[C@H]1O5.Cl [Compound 23] , please. > 2 h

* * *

compounds and their reported EC50
TARGET UNDER TEST: DOR (Homo sapiens, UniProt P41143)
Construct: expressed in transfected cells; membrane homogenate
EXPERIMENT NOTES: [35S]-GTPγS functional assay, DOR
Type: biochemical
CONDITION DESCRIPTION: hDOR-CHO membranes
Entry rule: numbers only, all in nM.

Reference set, count: 2
INSERT INTO results (smiles_string, measured_quantity, reading) VALUES
  ('CN(C(=O)CCc1ccoc1)[C@H]1CC[C@@]2(O)[C@H]3Cc4ccc(O)c5c4[C@@]2(CCN3CC2CC2)[C@H]1O5', 'EC50', 0.75),
  ('O=C(/C=C/c1ccco1)N[C@H]1CC[C@@]2(O)[C@H]3Cc4cccc5c4[C@@]2(CCN3CC2CC2)[C@H]1O5', 'EC50', 1240);

Consider the additional compound presented here.
Find EC50 (DOR (Homo sapiens, UniProt P41143)) for the entry O=C(/C=C/c1ccco1)N[C@@H]1CC[C@@]2(O)[C@H]3Cc4ccc(O)c5c4[C@@]2(CCN3CC2CC2)[C@H]1O5 13.1

* * *

EXPERIMENT NOTES: Drug distribution study (brain and plasma, LC-MS/MS)
Assay type: in vivo, mouse
CONDITION DESCRIPTION: Swiss Webster, mouse, brain and plasma, sc; 0.1 mg/kg s.c., 5 min; read-out: B/P (brain-to-plasma concentration ratio)
MEASURED QUANTITY: Kp at 5 min

Quick check: Kp at 5 min of CN(C(=O)/C=C/c1ccco1)[C@H]1CC[C@@]2(O)[C@H]3Cc4ccc(O)c5c4[C@@]2(CCN3CC2CC2)[C@H]1O5.Cl ? 0.027

* * *

Known Emax of a selection of molecules
TARGET UNDER TEST: MOR (Mus musculus, UniProt P42866)
EXPERIMENT NOTES: [35S]-GTPγS functional assay, MOR
Format: biochemical
Design: expressed in transfected cells; membrane homogenate
CONDITION DESCRIPTION: read-out: [35S]-GTPγS functional activity MOR Emax (%)
Your answer is read as %, so omit the unit and give the number.

INSERT INTO assay_data (smiles_string, measured_quantity, reading) VALUES
  ('CN(C(=O)CCc1ccco1)[C@@H]1CC[C@@]2(O)[C@H]3Cc4cccc5c4[C@@]2(CCN3CC2CC2)[C@H]1O5', 'Emax', 22.9),
  ('CN(C(=O)/C=C/c1ccco1)[C@@H]1CC[C@@]2(O)[C@H]3Cc4ccc(O)c5c4[C@@]2(CCN3CC2CC2)[C@H]1O5.Cl', 'Emax', 14.2),
  ('CN(C(=O)/C=C/c1ccco1)[C@H]1CC[C@@]2(O)[C@H]3Cc4cccc5c4[C@@]2(CCN3CC2CC2)[C@H]1O5', 'Emax', 22.9);

So what does the record say about Emax for CN(C(=O)CCc1ccco1)[C@@H]1CC[C@@]2(O)[C@H]3Cc4ccc(O)c5c4[C@@]2(CCN3CC2CC2)[C@H]1O5 ? 15.3

Suppose we examine the molecule O=C(CCc1ccco1)N[C@@H]1CC[C@@]2(O)[C@H]3Cc4cccc5c4[C@@]2(CCN3CC2CC2)[C@H]1O5 ; what Emax value has been reported? 10.8

I would be grateful if you could share the reported Emax for Cl.O=C(CCc1ccco1)N[C@H]1CC[C@@]2(O)[C@H]3Cc4ccc(O)c5c4[C@@]2(CCN3CC2CC2)[C@H]1O5 . 21.8

Give its Emax value. Item: CN(C(=O)CCc1ccoc1)[C@@H]1CC[C@@]2(O)[C@H]3Cc4ccc(O)c5c4[C@@]2(CCN3CC2CC2)[C@H]1O5 12.2

Requested field: Emax. Item: CN(C(=O)CCc1ccco1)[C@H]1CC[C@@]2(O)[C@H]3Cc4cccc5c4[C@@]2(CCN3CC2CC2)[C@H]1O5 11.2

Fill blank: measured Emax of the molecule O=C(CCc1ccoc1)N[C@H]1CC[C@@]2(O)[C@H]3Cc4cccc5c4[C@@]2(CCN3CC2CC2)[C@H]1O5 is ____. 8.8

Fill blank: measured Emax of the molecule CN(C(=O)CCc1ccoc1)[C@@H]1CC[C@@]2(O)[C@H]3Cc4cccc5c4[C@@]2(CCN3CC2CC2)[C@H]1O5 is ____. 13.8

What does the data say about its Emax? Entry: O=C(/C=C/c1ccco1)N[C@@H]1CC[C@@]2(O)[C@H]3Cc4cccc5c4[C@@]2(CCN3CC2CC2)[C@H]1O5 12.8

Fill in the blank: the reported Emax of CN(C(=O)CCc1ccco1)[C@H]1CC[C@@]2(O)[C@H]3Cc4ccc(O)c5c4[C@@]2(CCN3CC2CC2)[C@H]1O5 is ____. 15.3

Which measured Emax value corresponds to CN(C(=O)CCc1ccoc1)[C@H]1CC[C@@]2(O)[C@H]3Cc4cccc5c4[C@@]2(CCN3CC2CC2)[C@H]1O5 ? 11.5

* * *

TARGET UNDER TEST: UniProt P42866
EXPERIMENT NOTES: Competitive radioligand binding assay, MOR
Design: expressed in transfected cells; membrane homogenate
CONDITION DESCRIPTION: [3H]naloxone, mMOR-CHO membranes; read-out: radioligand binding affinity (Ki, nM) MOR
Form field: Ki (one value per entry).
Please state the figure in nM; there is no need to write the unit.

Before answering, review these 3 worked examples.
INSERT INTO measurements (compound, target_under_test, measured_quantity, reading) VALUES
  ('Cl.O=C(CCc1ccoc1)N[C@@H]1CC[C@@]2(O)[C@H]3Cc4ccc(O)c5c4[C@@]2(CCN3CC2CC2)[C@H]1O5 [Compound 8]', 'UniProt P42866', 'Ki', 0.21),
  ('Cl.O=C(CCc1ccco1)N[C@@H]1CC[C@@]2(O)[C@H]3Cc4ccc(O)c5c4[C@@]2(CCN3CC2CC2)[C@H]1O5 [Compound 16]', 'UniProt P42866', 'Ki', 0.28),
  ('Cl.O=C(CCc1ccco1)N[C@H]1CC[C@@]2(O)[C@H]3Cc4ccc(O)c5c4[C@@]2(CCN3CC2CC2)[C@H]1O5 [Compound 14]', 'UniProt P42866', 'Ki', 0.72);

Please turn your attention to the following entry.
Form: Entry = Cl.O=C(CCc1ccoc1)N[C@H]1CC[C@@]2(O)[C@H]3Cc4ccc(O)c5c4[C@@]2(CCN3CC2CC2)[C@H]1O5 [Compound 6] | System = UniProt P42866 | Ki = ____ 0.44

* * *

Below is a list of entries, each paired with its recorded selectivity ratio μ/κ value.
TARGET UNDER TEST: KOR (Mus musculus)
Construct: expressed in transfected cells; membrane homogenate
EXPERIMENT NOTES: Competitive radioligand binding assay, KOR
CONDITION DESCRIPTION: ratio of Ki values
// no unit string in output, number only

Known selectivity ratio μ/κ results, listed for orientation:
INSERT INTO assay_data (smiles_string, reading) VALUES
  ('O=C(CCc1ccco1)N[C@H]1CC[C@@]2(O)[C@H]3Cc4cccc5c4[C@@]2(CCN3CC2CC2)[C@H]1O5', 1),
  ('O=C(CCc1ccoc1)N[C@@H]1CC[C@@]2(O)[C@H]3Cc4cccc5c4[C@@]2(CCN3CC2CC2)[C@H]1O5', 2);

# input for lookup
Any idea what selectivity ratio μ/κ came out for CN(C(=O)CCc1ccco1)[C@H]1CC[C@@]2(O)[C@H]3Cc4cccc5c4[C@@]2(CCN3CC2CC2)[C@H]1O5 on KOR (Mus musculus)? 14
